# Test system: Staphylococcus epidermidis
# assay-comment: Antimicrobial activity against Staphylococcus epidermidis 1457 assessed as inhibition of bacterial biofilm after 18 hrs by broth microdilution method
# Assay type: functional
Documented MBIC across a set of compounds
# include the unit after the value

Would you please look over these solved cases?
[
  {
    "chem-smiles": "C=CCOc1cc(/C=C2\\SC(=S)N(c3ccc(F)cc3)C2=O)ccc1O",
    "assay-endpoint": "MBIC",
    "measured-result": "29.7 µM"
  },
  {
    "chem-smiles": "CCOc1cc(/C=C2\\SC(=S)N(c3cccnc3)C2=O)ccc1O",
    "assay-endpoint": "MBIC",
    "measured-result": "12.5 µM"
  },
  {
    "chem-smiles": "CCOc1cc(/C=C2\\SC(=S)N(c3cccc(F)c3)C2=O)ccc1O",
    "assay-endpoint": "MBIC",
    "measured-result": "50 µM"
  }
]

Now turn to the next compound.
# input Look up and report MBIC, with Staphylococcus epidermidis as system, for CCOc1cc(/C=C2\SC(=S)N(c3ccc(F)cc3)C2=O)ccc1O
# output 42 µM

----------
Documented MBIC across a set of compounds
# Tested on: Staphylococcus aureus
# assay-comment: Antimicrobial activity against community acquired methicillin-resistant Staphylococcus aureus isolate 24209 assessed as inhibition of bacterial biofilm after 18 hrs by broth microdilution method
# Format: functional
Entry rule: numbers only, all in µM.

Would you please look over these solved cases?
[
  {
    "chem-smiles": "C=CCOc1cc(/C=C2\\SC(=S)N(c3ccc(F)cc3)C2=O)ccc1O",
    "MBIC [µM]": 100
  },
  {
    "chem-smiles": "CCOc1cc(/C=C2\\SC(=S)N(c3ccc(F)cc3)C2=O)ccc1O",
    "MBIC [µM]": 100
  },
  {
    "chem-smiles": "CCOc1cc(/C=C2\\SC(=S)N(c3cccnc3)C2=O)ccc1O",
    "MBIC [µM]": 25
  }
]

Now turn to the next compound.
# input Supply recorded MBIC for CCOc1cc(/C=C2\SC(=S)N(c3cccc(F)c3)C2=O)ccc1O here.
# output 100

----------
# System: Staphylococcus aureus
# assay-comment: Antimicrobial activity against Staphylococcus aureus ATCC 35556 assessed as inhibition of bacterial biofilm after 18 hrs by broth microdilution method
# Format: functional
Documented MBIC across a set of compounds
Entry rule: numbers only, all in µM.

Would you please look over these solved cases?
[
  {
    "chem-smiles": "CCOc1cc(/C=C2\\SC(=S)N(c3cccc(F)c3)C2=O)ccc1O",
    "assay-endpoint": "MBIC",
    "units": "µM",
    "measured-result": 4.4
  },
  {
    "chem-smiles": "C=CCOc1cc(/C=C2\\SC(=S)N(c3ccc(F)cc3)C2=O)ccc1O",
    "assay-endpoint": "MBIC",
    "units": "µM",
    "measured-result": 2.6
  },
  {
    "chem-smiles": "CCOc1cc(/C=C2\\SC(=S)N(c3cccnc3)C2=O)ccc1O",
    "assay-endpoint": "MBIC",
    "units": "µM",
    "measured-result": 10.5
  }
]

Now turn to the next compound.
# input Supply recorded MBIC for CCOc1cc(/C=C2\SC(=S)N(c3ccc(F)cc3)C2=O)ccc1O here.
# output 2.6

----------
# System: Enterococcus faecium
# assay-comment: Antimicrobial activity against vancomycin-resistant Enterococcus faecium isolate EF208 assessed as inhibition of bacterial biofilm after 18 hrs by broth microdilution method
# Assay type: functional
assay-endpoint: MBIC (µM)
Entry rule: numbers only, all in µM.

[
  {
    "chem-smiles": "CCOc1cc(/C=C2\\SC(=S)N(c3ccc(F)cc3)C2=O)ccc1O",
    "system": "Enterococcus faecium",
    "MBIC, µM": 31.5
  },
  {
    "chem-smiles": "CCOc1cc(/C=C2\\SC(=S)N(c3cccnc3)C2=O)ccc1O",
    "system": "Enterococcus faecium",
    "MBIC, µM": 15.7
  },
  {
    "chem-smiles": "C=CCOc1cc(/C=C2\\SC(=S)N(c3ccc(F)cc3)C2=O)ccc1O",
    "system": "Enterococcus faecium",
    "MBIC, µM": 35.4
  }
]

Now turn to the next compound.
# input Supply recorded MBIC for CCOc1cc(/C=C2\SC(=S)N(c3cccc(F)c3)C2=O)ccc1O here.
# output 50

meta.source: ChEMBL document CHEMBL1649230
